# Tested on: SK-MEL-28
# ASSAY: NCI tumour cell line growth inhibition, 48 h
Active and inactive are the calls of the source. Cut-off read from the data, not from the text of the source: active = GI50 up to about 1.1 µM and inactive = higher.
PARAMETER: GI50

Here are 4 compounds together with their reported answers.
# return recorded GI50 for entry O=C1CCCc2c1c1c(n2Cc2ccccc2)-c2ccccc2C1=O
33.3 µM (inactive)

Please list GI50 recorded for the compound Cc1cc(N(CCCCl)CCCCl)ccc1/C=N/c1cccc(Cl)c1
17.4 µM (inactive)

State its GI50: Cc1c2ncccc2c(C)c2c1[nH]c1ccc(O)cc12
13.5 µM (inactive)

Provide GI50 value for the following compound: COC(=O)C1(Cc2ccccc2C)Cc2ccc(C)cc2C1=O (centres undefined)
79.8 µM (inactive)

New cases:
Provide only the value of recorded GI50 for CCCCC1=C(C(=O)N2CCOCC2)C2(OCCO2)C1=O
27.5 µM (inactive)

Annotate the compound Oc1c(OCc2nnc(CCCCCCCCc3nnc(COc4ccc5ccccc5c4O)n3Nc3ccccc3)n2Nc2ccccc2)ccc2ccccc12 with its measured GI50.
2.07 µM (inactive)

Annotate the compound N#Cc1ccccc1NC(=O)c1ccccc1 with its measured GI50.
> 100 µM (inactive)

Quickly give me recorded GI50 for COc1ccc(CCCC(=O)O)c(C)c1
91.4 µM (inactive)

Give recorded GI50. [N-]=[N+]=NC1C(O)C(CO)OC1n1ccc(N)nc1=O (centres undefined)
416 µM (inactive)

Tell me its GI50 given CCCCCCCCCCCCCCCCCCOCC(COCCOCC[N+]1(CCCCCC(=O)[O-])CCCC1)Oc1ncccn1 (centres undefined) as the entry.
6.68 µM (inactive)

Name the recorded GI50 of the compound listed here: Cc1cn(S(=O)(=O)c2ccccc2)c2c(OCc3ccccc3)cc([N+](=O)[O-])cc12
79.8 µM (inactive)

Please give the documented GI50 of Cc1ccc(C(=O)C#Cc2cnc(O)nc2O)cc1
16.9 µM (inactive)

Please look at this compound and report its GI50: C[C@@H]1C[C@H]2[C@@H]3CCC4=CC(=O)C=C[C@]4(C)[C@@]3(Cl)[C@@H](Cl)C[C@]2(C)[C@@]1(O)C(=O)COP(=O)(O)O
> 100 µM (inactive)

Given COc1ccc(NCC(=O)Nn2c(-c3ccccc3)nc3ccccc3c2=O)cc1 , respond with its GI50.
74.5 µM (inactive)

Identify measured GI50 associated with Cc1cc(C)nc(NS(=O)(=O)c2ccc(NC(=O)c3ccc(Cl)c4c(Nc5ccc(S(=O)(=O)Nc6cc(C)on6)cc5)c5ccccc5nc34)cc2)n1
18.4 µM (inactive)

Find the measured GI50 of Cc1c(-c2cc(-c3ccccc3)n[nH]c2=O)c2ccccc2n1C and report it.
> 100 µM (inactive)

Given the compound CN1CCN(c2ccc([N+](=O)[O-])c3no[n+]([O-])c23)CC1 , write its reported GI50.
1.98 µM (inactive)

Specify reported GI50 for the compound shown: COC(=O)[C@@H]1COC(=O)N1
> 100 µM (inactive)

Dear colleague, please send me the reported GI50 for C/C(=N/O)c1ccc2c(c1)/C(=N/O)c1cc(/C(C)=N/O)ccc1-2 when you can.
17.3 µM (inactive)

Give recorded GI50. CCCC1(NC(=O)C(F)(F)F)CC(OC)OC2COC(c3ccccc3)OC21 (centres undefined)
> 100 µM (inactive)

# return recorded GI50 for entry CC(=O)OC1C(C)OC(OC2C[C@](O)(C(C)=O)Cc3c(O)c4c(c(O)c32)C(=O)c2ccccc2C4=O)C(F)C1OC(C)=O (some centres undefined)
3.4 µM (inactive)

Using the record for CCc1oc2ccccc2c1C(=O)c1cc(Br)c(O)c(Br)c1 , state its measured GI50.
41.4 µM (inactive)

Entry N#CCCN(CCC#N)c1ccc(C(/N=N/c2ccccc2)=N\c2ccccc2)cc1 needs its GI50 filled in; supply it.
> 100 µM (inactive)
